# Test System: Beclin 1/Bcl-2 interaction (Homo sapiens (Human), UniProt P10415)
# Sequence (P10415 1-218): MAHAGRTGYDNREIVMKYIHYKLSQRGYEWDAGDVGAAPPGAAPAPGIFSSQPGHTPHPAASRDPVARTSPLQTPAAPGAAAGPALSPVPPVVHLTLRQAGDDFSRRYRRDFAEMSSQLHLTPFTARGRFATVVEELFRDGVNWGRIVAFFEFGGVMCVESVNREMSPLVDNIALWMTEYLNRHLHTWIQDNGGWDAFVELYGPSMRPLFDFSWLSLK
# Assay Name: Beclin 1/Bcl-2 AlphaLISA assay (dose-response)
Assay Endpoint: IC50 (µM)

molecule="Cc1ccc(C(=O)N2N=C(c3ccc(NS(C)(=O)=O)cc3)CC2c2ccc(C)cc2)cc1 (centres unmarked) [lqr-8-275]" test_system="Beclin 1/Bcl-2 interaction (Homo sapiens (Human), UniProt P10415)" assay_endpoint=IC50 recorded_value=14.2
molecule="Cc1ccc(C(=O)N2N=C(c3ccc(NS(C)(=O)=O)cc3)CC2c2ccccc2Br)cc1 (centres unmarked) [lqr-8-269]" test_system="Beclin 1/Bcl-2 interaction (Homo sapiens (Human), UniProt P10415)" assay_endpoint=IC50 recorded_value=9.83
molecule="CS(=O)(=O)Nc1ccc(C2=NN(C(=O)c3ccc(F)cc3)C(c3ccco3)C2)cc1 (centres unmarked) [lqr-8-183]" test_system="Beclin 1/Bcl-2 interaction (Homo sapiens (Human), UniProt P10415)" assay_endpoint=IC50 recorded_value=12.8
molecule="Cc1ccc(C(=O)N2N=C(c3ccc(NS(C)(=O)=O)cc3)CC2c2ccc(Br)cc2)cc1 (centres unmarked) [lqr-8-267]" test_system="Beclin 1/Bcl-2 interaction (Homo sapiens (Human), UniProt P10415)" assay_endpoint=IC50 recorded_value=13.9
molecule="CCC1CC(c2ccc(NC(=O)OC(C)(C)C)cc2)=NN1C(=O)c1ccc(Br)cc1 (centres unmarked) [lqr-9-026]" test_system="Beclin 1/Bcl-2 interaction (Homo sapiens (Human), UniProt P10415)" assay_endpoint=IC50 recorded_value=13

---

# Test System: Beclin 1/Bcl-2 interaction (Homo sapiens (Human))
# Assay Name: Beclin 1/Bcl-2 AlphaLISA assay (dose-response)
# Format: binding
Assay Endpoint: IC50 (nM)

molecule="CS(=O)(=O)Nc1ccc(C2=NN(C(=O)c3ccc(Br)cc3)C(c3ccco3)C2)cc1 (stereo not shown)" recorded_value=2420
molecule="CC(C)NC(=O)Nc1ccc(C2=NN(C(=O)c3ccc(Br)cc3)C(c3ccccc3)C2)cc1 (stereo not shown) [lqr-9-085]" recorded_value=63
molecule="Cc1ccc(C(=O)N2N=C(c3ccc(NS(C)(=O)=O)cc3)CC2c2ccco2)cc1 (stereo not shown)" recorded_value=16200

A: CC(C)(C)OC(=O)Nc1ccc(C2=NN(C(=O)c3ccc(Br)cc3)C(c3ccc(Br)o3)C2)cc1 (stereo not shown)
B: CC(C)(C)OC(=O)Nc1ccc(C2=NN(C(=O)c3ccc4c(c3)OCO4)C(c3ccccc3)C2)cc1 (stereo not shown)
Query: Sort A and B by IC50 descending and give the first. Indicate your choice by writing its label.
Result: B
(B: 6770 nM, A: 2680 nM)

---

# Test System: Beclin 1/Bcl-2 interaction (Homo sapiens (Human), UniProt P10415)
# Assay Name: Beclin 1/Bcl-2 AlphaLISA assay (dose-response)
pIC50: −log10 of the molar value.
Assay Endpoint: pIC50

compound="CC(C)(C)OC(=O)Nc1ccc(C2=NN(C(=O)c3ccc(Br)cc3)C(c3ccncc3)C2)cc1 (centres unmarked)" assay_endpoint=pIC50 recorded_value=5.52

1: O=C1OCCN1c1ccc(C2=NN(C(=O)c3ccc(Br)cc3)C(c3ccccc3)C2)cc1 (centres unmarked)
2: CS(=O)(=O)Nc1ccc(C2=NN(C(=O)c3ccc(I)cc3)C(c3ccco3)C2)cc1 (centres unmarked)
3: CCNc1ccc(C2=NN(C(=O)c3ccc(C)cc3)C(c3ccco3)C2)cc1 (centres unmarked)
4: Cc1ccc(C(=O)N2N=C(c3ccc(NS(C)(=O)=O)cc3)CC2c2ccccc2)cc1 (centres unmarked)
Query: # desc sort on pIC50 across 4 compounds When ranking, write the labels in the order the request describes.
Result: 4, 2, 1, 3
